test system: NDM-1 over-expressing E. coli; experiment: microbe, parasite or virus in culture; assay type: cell-based, Escherichia coli; conditions: Escherichia coli, antibiotic alone, read-out: MIC of AB only
// reported log10(MIC) for each item listed
Scale: log10; quantity: MIC; unit before log: µg/mL

N[C@@H]1[C@H]2CN(c3nc4c(cc3F)c(=O)c(C(=O)O)cn4-c3ccc(F)cc3F)C[C@@H]12 [Trovafloxacin, trovafloxacin]: -1.60
O=C(N[C@H](CO)[C@H](O)c1ccc([N+](=O)[O-])cc1)C(Cl)Cl [Chloramphenicol, chloramphenicol]: 0.80

**Q:** Any idea what log10(MIC) was measured for CCC[C@@H]1C[C@@H](C(=O)N[C@@H]([C@H]2O[C@H](SC)[C@H](O)[C@@H](O)[C@H]2O)[C@H](C)Cl)N(C)C1 [Clindamycin, clindamycin] ?
**A:** 2.40

**Q:** Check CO[C@@H]1[C@@H](OC(N)=O)[C@@H](O)[C@H](Oc2ccc3c(O)c(NC(=O)c4ccc(O)c(CC=C(C)C)c4)c(=O)oc3c2C)OC1(C)C [Novobiocin, novobiocin] too.
**A:** 1.70

**Q:** Check CC[C@H]1OC(=O)[C@H](C)[C@@H](O[C@H]2C[C@@](C)(OC)[C@@H](O)[C@H](C)O2)[C@H](C)[C@@H](O[C@@H]2O[C@H](C)C[C@H](N(C)C)[C@H]2O)[C@](C)(OC)C[C@@H](C)C(=O)[C@H](C)[C@@H](O)[C@]1(C)O [Clarithromycin, clarithromycin] too.
**A:** 1.38

====

Values of MIC reported for M. smegmatis appear below.
Report as a plain number; the unit µM is understood.

**Q:** Any idea what MIC was measured for N=C(N)c1ccc(OCc2ccc(COc3ccc(C(=N)N)cc3)cc2)cc1 [drawing 814] ?
**A:** 3

**Q:** Check Cn1c(-c2ccc(-c3ccc(C(=N)N)cc3)s2)nc2cc(-c3ccc(C(=N)N)cc3)ccc21 [drawing 819] too.
**A:** 6

**Q:** Check COc1cc(C2=NCCN2)ccc1OCc1cccc(COc2ccc(C3=NCCN3)cc2OC)c1F [drawing 813] too.
**A:** 25

**Q:** Check N=C(N)c1ccc2nc(-c3ccc(OCC(F)(F)C(F)(F)COc4ccc(-c5nc6ccc(C(=N)N)cc6[nH]5)cc4)cc3)[nH]c2c1 [drawing 801] too.
**A:** 6

**Q:** Check N=C(N)c1ccc(OCc2cccc(COc3ccc(C(=N)N)cc3F)c2F)c(F)c1 [drawing 805] too.
**A:** 12

**Q:** Check N=C(N)c1ccc(OCc2cccc(COc3ccc(C(=N)N)cc3)c2)cc1 [drawing 821] too.
**A:** 12

**Q:** Check N=C(N)c1ccc(OCc2cccc(COc3ccc(C(=N)N)cc3)c2F)cc1 [drawing 806] too.
**A:** 12

**Q:** Check Cc1cc(COc2ccc(C(=N)N)cc2)cc(COc2ccc(C(=N)N)cc2)c1 [drawing 809] too.
**A:** 12

**Q:** Check c1cc(COc2ccc(C3=NCCN3)cc2)cc(COc2ccc(C3=NCCN3)cc2)c1 [drawing 810] too.
**A:** 12

**Q:** Check Cc1cc(COc2ccc(C(=N)NC(C)C)cc2)cc(COc2ccc(C(=N)NC(C)C)cc2)c1 [drawing 815] too.
**A:** 3
